- Tested System: HSA (α-amylase derived from human salivary gland) (Homo sapiens)
- Construct: purchased International Reagents Corp., Japan Calibzyme·AMY
- Sequence (P0DUB6 16-511): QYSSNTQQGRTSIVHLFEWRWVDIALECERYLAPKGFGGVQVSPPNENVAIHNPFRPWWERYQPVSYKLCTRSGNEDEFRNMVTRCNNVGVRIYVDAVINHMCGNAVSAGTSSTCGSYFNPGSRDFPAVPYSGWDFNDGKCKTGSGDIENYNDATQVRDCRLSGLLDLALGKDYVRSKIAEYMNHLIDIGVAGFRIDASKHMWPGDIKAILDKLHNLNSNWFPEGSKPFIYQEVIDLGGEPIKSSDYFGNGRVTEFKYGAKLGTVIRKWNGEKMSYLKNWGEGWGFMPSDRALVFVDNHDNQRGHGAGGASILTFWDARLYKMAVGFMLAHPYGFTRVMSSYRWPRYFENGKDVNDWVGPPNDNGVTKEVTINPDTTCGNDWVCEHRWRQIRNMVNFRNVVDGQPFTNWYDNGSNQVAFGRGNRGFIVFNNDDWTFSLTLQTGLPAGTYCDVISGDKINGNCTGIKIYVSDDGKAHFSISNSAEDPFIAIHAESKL
- Measurement Protocol: Inhibition of human α-amylase activity in vitro (blue starch, Neo·Amylase Test), HSA
- Type: biochemical
- Condition Set: final concentration of inhibitor reducing 50% of the activity of the HSA solution; 37° C., 30 minutes
- Description: Purified water was added to commercial HPA and HSA to dissolve them to a concentration of 350 IU/1 to prepare an α-amylase solution. “Calibzyme·AMY” (produced by International Reagents Corp., Japan) was used as this commercial human α-amylase. The α-amylase activity was determined with reference to the calibration curves of a commercial α-amylase determining reagent “Neo·Amylase Test, Daiichi” (produced by Daiichi Pure Chemicals Co., Ltd., Japan). […]
Provide the reported IC50 of each item.
Give bare numbers, in mM.

Molecule	IC50 (mM)
OCC1NCC(O)C(O)C1OC1OC(CO)C(OC2OC(CO)C(O)C(O)C2O)C(O)C1O (stereo not drawn) [GGDN, Maltosyl-deoxynojirimycin, reference compound]	0.26
CC1OC(OC2C(CO)OC(OC3C(CO)NCC(O)C3O)C(O)C2O)C(O)C(O)C1OC1OC(CO)C(O)C(O)C1O (stereo not drawn)	0.03

# context switch: different molecule, same IC50
// lookup IC50 for CC1OC(OC2C(CO)OC(OC3C(CO)NCC(O)C3O)C(O)C2O)C(O)C(O)C1O (stereo not drawn)
0.03
